Attribute: Ki
target: hCA I (Homo sapiens); construct: made in house; assay: stopped-flow CO2 hydrase assay, hCA I; format: biochemical
Sequence (P00915 whole entry): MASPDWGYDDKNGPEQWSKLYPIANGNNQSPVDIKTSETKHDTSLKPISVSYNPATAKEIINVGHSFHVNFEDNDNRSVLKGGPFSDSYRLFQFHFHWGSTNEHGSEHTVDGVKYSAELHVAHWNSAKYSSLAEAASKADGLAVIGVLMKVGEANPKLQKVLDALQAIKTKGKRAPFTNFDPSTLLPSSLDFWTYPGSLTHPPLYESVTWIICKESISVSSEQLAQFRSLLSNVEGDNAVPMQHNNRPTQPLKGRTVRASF
recorded metric: Ki

>>> reported_value("NS(=O)(=O)c1ccc(-c2cnc(C(=O)N3CCNCC3)o2)s1")
"4 nM"
>>> reported_value("NS(=O)(=O)c1ccc(-c2cnc(C(=O)NC3CCNCC3)o2)s1")
"56.8 nM"
>>> reported_value("NCCNC(=O)c1ncc(-c2ccc(S(N)(=O)=O)s2)o1")
"72.9 nM"
>>> reported_value("NC1CCN(C(=O)c2ncc(-c3ccc(S(N)(=O)=O)s3)o2)CC1")
"31.3 nM"

###

List of Ki values.
target: hCA IV (Homo sapiens, UniProt P22748); construct: made in house; assay: stopped-flow CO2 hydrase assay, hCA IV; assay type: biochemical
Sequence (P22748 19-312): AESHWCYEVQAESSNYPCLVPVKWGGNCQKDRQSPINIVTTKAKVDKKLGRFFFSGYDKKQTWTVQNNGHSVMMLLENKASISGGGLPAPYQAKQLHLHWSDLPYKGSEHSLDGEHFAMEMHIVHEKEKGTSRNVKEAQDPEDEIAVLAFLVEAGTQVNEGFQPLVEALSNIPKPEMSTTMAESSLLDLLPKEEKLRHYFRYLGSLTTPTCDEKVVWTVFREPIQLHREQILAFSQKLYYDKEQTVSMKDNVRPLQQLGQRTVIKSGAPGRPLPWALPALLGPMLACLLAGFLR
recorded metric: Ki

>>> reported_value("NC1CCN(C(=O)c2ncc(-c3ccc(S(N)(=O)=O)s3)o2)CC1 [7c]")
"0.0306 µM"
>>> reported_value("NS(=O)(=O)c1ccc(-c2cnc(C(=O)N3CCNCC3)o2)s1 [7a]")
"0.0216 µM"
